- tested-target: FGFR1 (UniProt P11362)
- Sequence (P11362 whole entry, looked up): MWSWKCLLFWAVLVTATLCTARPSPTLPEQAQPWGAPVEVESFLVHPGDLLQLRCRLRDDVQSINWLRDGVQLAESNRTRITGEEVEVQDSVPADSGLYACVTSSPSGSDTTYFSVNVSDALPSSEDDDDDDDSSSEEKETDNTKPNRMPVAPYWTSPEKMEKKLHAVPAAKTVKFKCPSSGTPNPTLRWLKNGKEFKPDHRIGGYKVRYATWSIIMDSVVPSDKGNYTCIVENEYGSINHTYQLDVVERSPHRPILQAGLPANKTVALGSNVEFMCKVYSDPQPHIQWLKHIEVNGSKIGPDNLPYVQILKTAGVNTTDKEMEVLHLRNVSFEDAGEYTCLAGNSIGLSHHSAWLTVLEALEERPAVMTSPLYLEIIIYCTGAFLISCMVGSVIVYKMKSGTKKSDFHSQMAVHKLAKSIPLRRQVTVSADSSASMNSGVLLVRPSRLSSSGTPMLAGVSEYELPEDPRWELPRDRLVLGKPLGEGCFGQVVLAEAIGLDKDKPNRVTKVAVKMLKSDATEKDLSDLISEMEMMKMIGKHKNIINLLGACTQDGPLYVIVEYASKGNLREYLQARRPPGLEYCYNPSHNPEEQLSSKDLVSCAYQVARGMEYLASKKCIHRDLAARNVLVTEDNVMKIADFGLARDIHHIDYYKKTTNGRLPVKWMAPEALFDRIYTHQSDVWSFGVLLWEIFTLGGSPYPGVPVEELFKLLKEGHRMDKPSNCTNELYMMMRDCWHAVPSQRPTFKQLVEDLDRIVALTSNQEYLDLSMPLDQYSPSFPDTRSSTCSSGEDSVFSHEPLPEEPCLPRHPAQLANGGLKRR
- measurement-description: phosphorylation enrichment, bacterial display (enrichment ratio); higher = better substrate or ligand; peptides without Tyr show the background;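 further: 11-residue human phosphosite peptides and single-mutation variants displayed on the E. coli surface, counted by deep sequencing, each peptide's frequency after selection divided by its frequency in the unselected input library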;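 further: frequency after pTyr selection over input frequency; kinase dosed for 20-30% of maximal phosphorylation in three min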
Label scheme for phosphorylation enrichment: lower than 0.5 is 0, 0.5 and above is 1.

Assess whether reported phosphorylation enrichment for ADSLRYIFPKL [EIF2B3_Y92_YF] sits at 0.5 or higher.
0

# repeat for KKLAEYGPQGR [CLCA1_Y147]
0

What about this sequence? ERPIRYLNHQL [CEP152_Y268_Q265P]
0

# repeat for DGQVNYEELVQ [CALM1_Y139_F142L]
1

What about this sequence? VLTSKYCGGGG [HBA1_Y141_R142C]
0

Next:
phosphorylation enrichment >= 0.5 for AVNNFYAAKKT [CCDC178_Y422_D420N] ?
1

Try FRPPFYHRDCM [HGD_Y334_N337D_YF] next.
1

====

- Tested on: c-Abl (mouse)
- measurement-description: phosphorylation enrichment, bacterial display (enrichment ratio); higher = better substrate or ligand; peptides without Tyr show the background
test-readout: phosphorylation enrichment
Answer with a number only.

Would you please look over these solved cases?
Return reported phosphorylation enrichment; argument: ATVLNYLPKCI [A2M_Y817]
0.714

Moving on to the next sequence: VNKGGYFSVNL [C3orf33_Y164_S160N]
0.688

Others:
Item under review: EEGNPSFSSAR [MCCC2_Y520_Y520S_YF] . Reported phosphorylation enrichment?
0.681

====

- tested-target: EPHB2 (UniProt P29323)
- Sequence (P29323 whole entry, looked up): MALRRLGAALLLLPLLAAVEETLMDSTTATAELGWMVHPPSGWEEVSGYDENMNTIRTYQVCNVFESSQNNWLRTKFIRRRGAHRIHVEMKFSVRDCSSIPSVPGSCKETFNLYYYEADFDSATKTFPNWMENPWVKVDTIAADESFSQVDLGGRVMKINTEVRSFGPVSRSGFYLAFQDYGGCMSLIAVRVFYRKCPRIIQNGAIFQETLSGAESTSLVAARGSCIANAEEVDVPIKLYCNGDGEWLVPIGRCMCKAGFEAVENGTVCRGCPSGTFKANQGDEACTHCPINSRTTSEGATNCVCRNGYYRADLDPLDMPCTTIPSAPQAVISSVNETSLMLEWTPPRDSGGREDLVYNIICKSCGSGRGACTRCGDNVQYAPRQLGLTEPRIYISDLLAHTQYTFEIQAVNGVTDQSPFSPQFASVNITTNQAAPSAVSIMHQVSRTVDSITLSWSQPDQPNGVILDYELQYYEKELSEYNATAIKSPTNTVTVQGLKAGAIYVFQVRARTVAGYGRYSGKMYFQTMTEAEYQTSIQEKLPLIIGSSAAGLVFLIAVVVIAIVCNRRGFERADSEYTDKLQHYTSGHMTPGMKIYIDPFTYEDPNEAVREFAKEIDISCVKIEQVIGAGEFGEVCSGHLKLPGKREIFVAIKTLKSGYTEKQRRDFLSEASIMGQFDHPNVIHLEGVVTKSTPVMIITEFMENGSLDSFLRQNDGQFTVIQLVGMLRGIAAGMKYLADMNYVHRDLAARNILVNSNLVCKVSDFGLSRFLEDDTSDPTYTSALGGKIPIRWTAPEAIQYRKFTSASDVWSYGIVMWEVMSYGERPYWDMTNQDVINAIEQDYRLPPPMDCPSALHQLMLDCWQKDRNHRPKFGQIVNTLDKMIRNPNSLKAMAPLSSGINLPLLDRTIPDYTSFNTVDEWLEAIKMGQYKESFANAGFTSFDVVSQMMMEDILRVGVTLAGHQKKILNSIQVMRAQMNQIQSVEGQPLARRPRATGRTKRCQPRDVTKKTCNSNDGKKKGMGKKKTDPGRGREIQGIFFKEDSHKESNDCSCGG
- measurement-description: phosphorylation enrichment, bacterial display (enrichment ratio); higher = better substrate or ligand; peptides without Tyr show the background
Entries and their measured phosphorylation enrichment follow.
// no unit, no text: just the number

The examples below pair each entry with its known result.
Entry QGLRLYRPHLP [BTK_Y617_A622P] : reported phosphorylation enrichment = ?
0.568

Lookup QSHKVYVQHLL [POR_Y604]
0.572

What about this sequence? LNERHYGGLTD [PGAM2_Y92_G97D]
0.83

***
Which phosphorylation enrichment value is on record for LLLLFYVVRYC [MPZ_Y177] ?
0.345

====

- Test system: AncSZ
- measurement-description: phosphorylation enrichment, bacterial display (enrichment ratio); higher = better substrate or ligand; peptides without Tyr show the background
test-readout: phosphorylation enrichment
Respond using a number only.

In the examples that follow, each entry is paired with its recorded phosphorylation enrichment.
Give the measured phosphorylation enrichment of KNNDGYTDFAE [MCFD2_Y135_I136T_YF] .
0.999

Please answer likewise for LSDGPYSNSFE [EPOR_Y485_P488S_YF]
1.49

Try GSPAPYRRRKR [MBD1_Y403_P401A] next.
0.617

Try LIHLHYIRRDY [BBS4_Y43_K46R] next.
0.952

Then what about the sequence HFPFQCHRQLF [F12_Y53_Y53C_YF] ?
1.76

Consider the record given below.
Recorded phosphorylation enrichment for HKNNNYEPNLF [BRCA2_Y57] , please?
0.739

====

- System: Fer (mouse)
- measurement-description: phosphorylation enrichment, bacterial display (enrichment ratio); higher = better substrate or ligand; peptides without Tyr show the background
test-readout: phosphorylation enrichment
Number only, please.

Solved entries:
Reported phosphorylation enrichment for GGFNNYGFGND [HNRNPH3_Y159_YF] : what is it?
0.463

Input RIPFRYPKEFQ [IDS_Y234_H229R]
0.627

And for VLTSKYCGGGG [HBA1_Y141_R142C] ?
0.394

***
Tell me the measured phosphorylation enrichment of YQSKHYACIRQ [TIMP3_Y182] , please.
0.554

Input SHLSAYPALEG [CD5_Y465]
0.409

// query: SPRDTYSDRSG [CTPS1_Y567]
0.369

Queued: ILGTYYETGSI [PAX2_Y73_R71T]
0.645

Another sequence to check: TLAHKYHGGGG [HBB_Y146_A141T]
0.436
